Record form. Attribute: Plant response rating, Foxtail, Giant. Fill in for each entry.
- System: giant foxtail (Setaria faberii)
- TEST PROTOCOL: Test B postemergence
- Type: in vivo
- TEST PARAMETERS: Rate 125 g/ha, scale 0 (no effect) to 100 (complete control), 13 to 15 days
No unit in the answer, only the number.

# get_value(readout='Plant response rating, Foxtail, Giant', item= O=C1C(n2ccc(C3CC3)n2)SCN1c1cccc(C(F)(F)F)c1 (stereo not shown) )
20

Another compound to check: Cc1ccc(N2CCC(n3ccc(C(C)(C)C)n3)C2=O)cc1OC(F)F (stereo not shown)
0

Another compound to check: O=C1C(n2ccc(C3CCCCC3)n2)SCN1c1cccc(OC(F)(F)F)c1 (stereo not shown)
0

Another compound to check: CC(C)(C)c1ccn(C2SCN(c3cccc(OC(F)(F)F)c3)C2=O)n1 (stereo not shown)
10

Another compound to check: CC1(C)CCc2cn(C3CCN(c4cccc(C(F)(F)F)c4)C3=O)nc21 (stereo not shown)
0

Another compound to check: O=C1C(n2ccc(C3CCC3)n2)OCN1c1cccc(C(F)(F)F)c1 (stereo not shown)
0

Another compound to check: CCC(C)c1nn(C2CCN(c3cccc(C(F)(F)F)c3)C2=O)cc1Cl (stereo not shown)
0

Another compound to check: Cc1ccn(C2CCN(c3cccc(C(F)(F)F)c3)C2=O)n1 (stereo not shown)
0

Another compound to check: CC1(c2ccn(C3OCN(c4cccc(C(F)(F)F)c4)C3=O)n2)CC1 (stereo not shown)
0

Another compound to check: CCC(C)c1ccn(C2CCN(c3cccc(OC(C)C)c3)C2=O)n1 (stereo not shown)
0

Another compound to check: CC(C)c1ccn(C2OCN(c3cccc(OC(F)(F)F)c3)C2=O)n1 (stereo not shown)
0

Another compound to check: CC1(c2ccn(C3SCN(c4cccc(C(F)(F)F)c4)C3=O)n2)CC1 (stereo not shown)
0

Another compound to check: CC(C)(C)c1ccn(C2CCN(c3cccc(OC(=O)C(F)(F)F)c3)C2=O)n1 (stereo not shown)
0

Another compound to check: Cc1ccn(C2SCN(c3cccc(C(F)(F)F)c3)C2=O)n1 (stereo not shown)
0

Another compound to check: CC(C)(C)c1ccn(C2SCN(c3cccc(OC(F)F)c3)C2=O)n1 (stereo not shown)
60

Another compound to check: CC(C)c1ccn(C2OCN(c3cccc(C(F)(F)F)c3)C2=O)n1 (stereo not shown)
0

Another compound to check: COC(=O)c1cccc(N2CCC(n3ccc(C(C)(C)C)n3)C2=O)c1 (stereo not shown)
20

Another compound to check: Cc1ccc(N2CCC(n3ccc(C(C)(C)C)n3)C2=O)cc1Br (stereo not shown)
0

Another compound to check: CCCOc1cc(N2CCC(n3ccc(C(C)(C)C)n3)C2=O)ccc1C (stereo not shown)
0

---

- Tested on: crabgrass (Digitaria sanguinalis)
- TEST PROTOCOL: Test B preemergence
- Assay type: in vivo
- TEST PARAMETERS: preemergence; Rate 125 g/ha; scale of 0 to 100 where 0 is no effect and 100 is complete control; 13 to 15 days
PROPERTY MEASURED: Plant response rating, Crabgrass
No unit in the answer, only the number.

# get_value(readout='Plant response rating, Crabgrass', item= CCC(C)c1ccn(C2CCN(c3cccc(OC(C)C)c3)C2=O)n1 (centres unmarked) )
100

Another molecule to check: CC(C)(C)c1ccn(C2CCN(c3cccc([S+]([O-])C(F)(F)F)c3)C2=O)n1 (centres unmarked)
90

Another molecule to check: CCCCC(C)c1ccn(C2OCN(c3cccc(C(F)(F)F)c3)C2=O)n1 (centres unmarked)
0

Another molecule to check: CCC(C)c1ccn(C2CCN(c3ccc(F)c(C(F)(F)F)c3)C2=O)n1 (centres unmarked)
100

Another molecule to check: COC(=O)c1cccc(N2CCC(n3ccc(C(C)(C)C)n3)C2=O)c1 (centres unmarked)
100

---

- Tested on: Surinam grass (Brachiaria decumbens)
- TEST PROTOCOL: Test C preemergence
- Assay type: in vivo
- TEST PARAMETERS: Preemergence; Rate 500 g/ha; scale 0 to 100
Plant response rating, Surinam grass less than 60 is label 1; Plant response rating, Surinam grass greater than or equal to 60 is label 0.

Say whether its Plant response rating, Surinam grass is strictly beneath 60. Entry: O=C1C(n2ccc(C3CCCCC3)n2)SCN1c1cccc(C(F)(F)F)c1 (centres unmarked) [Compound 52]
label 1

Another molecule to check: CC(C)(C)c1ccn(C2CCN(c3cccc(Br)c3)C2=O)n1 (centres unmarked) [Compound 33]
label 0

Another molecule to check: O=C1C(n2ccc(C3CCC3)n2)OCN1c1cccc(C(F)(F)F)c1 (centres unmarked) [Compound 39]
label 0

Another molecule to check: O=C1C(n2ccc(C3CCC3)n2)SCN1c1cccc(OC(F)F)c1 (centres unmarked) [Compound 45]
label 0

Another molecule to check: CCC(CC)c1ccn(C2SCN(c3cccc(C(F)(F)F)c3)C2=O)n1 (centres unmarked) [Compound 25]
label 0

Another molecule to check: CC(C)(C)c1ccn(C2CCN(c3ccc(Cl)c(Br)c3)C2=O)n1 (centres unmarked) [Compound 56]
label 1

Another molecule to check: CCC(C)c1ccn(C2SCN(c3cccc(C(F)(F)F)c3)C2=O)n1 (centres unmarked) [Compound 20]
label 1

---

Record form. Attribute: Plant response rating, Morningglory. Fill in for each entry.
- Test system: morningglory (Ipomoea hederacea)
- TEST PROTOCOL: Test C postemergence
- Assay type: in vivo
- TEST PARAMETERS: Rate 250 g/ha, scale 0 to 100 (0 no effect, 100 complete control)
No unit in the answer, only the number.

# get_value(readout='Plant response rating, Morningglory', item= CCC(C)c1ccn(C2CCN(c3ccc(C)c(OC)c3)C2=O)n1 (stereo not shown) [Compound 80] )
60

Another compound to check: COc1cc(N2CCC(n3ccc(C(C)C)n3)C2=O)ccc1Br (stereo not shown) [Compound 140]
100

Another compound to check: O=C1C(n2ccc(C3CCC3)n2)SCN1c1cccc(C(F)(F)F)c1 (stereo not shown) [Compound 37]
0

Another compound to check: CCC(C)c1ccn(C2CCN(c3ccc(Cl)c(OC)c3)C2=O)n1 (stereo not shown) [Compound 119]
100

Another compound to check: CC(C)(C)c1ccn(C2SCN(c3cccc(OC(F)F)c3)C2=O)n1 (stereo not shown) [Compound 36]
20

Another compound to check: CCC(CC)c1ccn(C2CCN(c3ccc(C)c(OC)c3)C2=O)n1 (stereo not shown) [Compound 81]
80

Another compound to check: CCCC(C)c1ccn(C2OCN(c3cccc(OC(F)(F)F)c3)C2=O)n1 (stereo not shown) [Compound 91]
60

---

- Test system: kochia (Kochia scoparia)
- TEST PROTOCOL: Test C preemergence
- Format: in vivo
- TEST PARAMETERS: preemergence, Rate 250 g/ha, visual evaluation after 12 to 14 days
Record form. Attribute: Plant response rating (0 to 100), Kochia. Fill in for each entry.

# get_value(readout='Plant response rating (0 to 100), Kochia', item= O=C1C(n2ccc(C3CCC3)n2)SCN1c1cccc(OC(F)(F)F)c1 (stereo not shown) )
90

Another compound to check: CC(C)Oc1cccc(N2CCC(n3ccc(C(C)(C)C)n3)C2=O)c1 (stereo not shown)
100

Another compound to check: COc1cc(N2CCC(n3ccc(C(C)C)n3)C2=O)ccc1C (stereo not shown)
100

Another compound to check: CCC(CC)c1ccn(C2SCN(c3cccc(C(F)(F)F)c3)C2=O)n1 (stereo not shown)
100

---

- System: giant foxtail (Setaria faberii)
- TEST PROTOCOL: Test C preemergence
- Format: in vivo
- TEST PARAMETERS: preemergence; Rate 125 g/ha; scale 0 to 100, 0 no effect, 100 complete control
Mark 0 (no) for Plant response rating, Foxtail, Giant values under 50, and 1 (yes) for everything at or above.

Item CC(C)(C)c1ccn(C2SCN(c3cccc(OC(F)(F)F)c3)C2=O)n1 (stereo not drawn) with Plant response rating, Foxtail, Giant of 50 or above?
1 (yes)

Another compound to check: CC(C)(C)c1ccn(C2SCN(c3cccc(OC(F)F)c3)C2=O)n1 (stereo not drawn)
1 (yes)

Another compound to check: CC1(c2ccn(C3SCN(c4cccc(OC(F)(F)F)c4)C3=O)n2)CC1 (stereo not drawn)
1 (yes)

Another compound to check: O=C1C(n2ccc(C3CCCCC3)n2)SCN1c1cccc(OC(F)(F)F)c1 (stereo not drawn)
0 (no)

Another compound to check: CC(C)(C)c1ccn(C2CCN(c3ccc(Cl)c(Br)c3)C2=O)n1 (stereo not drawn)
0 (no)

Another compound to check: O=C1C(n2ccc(C3CCC3)n2)SCN1c1cccc(OC(F)F)c1 (stereo not drawn)
0 (no)

Another compound to check: CCC(C)c1ccn(C2OCN(c3cccc(OC(F)(F)F)c3)C2=O)n1 (stereo not drawn)
1 (yes)

Another compound to check: O=C1C(n2ccc(C3CC3)n2)OCN1c1cccc(C(F)(F)F)c1 (stereo not drawn)
1 (yes)
